Consider the following compounds and their measured combination Emax readings.
Test system: A2058 (Melanoma)
Experiment: combination Emax (second highest fraction inhibited in the dose matrix, 72 h); higher = more inhibition; extreme values may be limits of the assay
Simply state the number, no unit and no words.

{"Compound": "CS(=O)(=O)CCNCc1ccc(-c2ccc3ncnc(Nc4ccc(OCc5cccc(F)c5)c(Cl)c4)c3c2)o1 [Lapatinib] + C[C@@H](Oc1cc(-c2cnn(C3CCNCC3)c2)cnc1N)c1c(Cl)ccc(F)c1Cl [Crizotinib] (first compound max 10 µM, 7x7, partner max 10 µM)", "combination Emax": 0.991}
{"Compound": "Cc1c2c(nn1C)CSCc1cc(n(C)n1)CSc1cc(c3ccccc3c1)OCCCc1c(C(=O)O)n(C)c3c-2c(Cl)ccc13 [AZD5991] + C1CN(CCC1(C(=O)N[C@@H](CCO)C2=CC=C(C=C2)Cl)N)C3=NC=NC4=C3C=CN4 [Capivasertib] (first compound max 1 µM, 7x7, partner max 3 µM)", "combination Emax": 0.908}

Next compound, combination Emax to be filled in.
Please list combination Emax recorded for the compound CCN(CCO)CCCOc1ccc2c(Nc3cc(CC(=O)Nc4cccc(F)c4)[nH]n3)ncnc2c1 [AZD2811] + O=C(c1cc(Cc2n[nH]c(=O)c3ccccc23)ccc1F)N1CCN(C(=O)C2CC2)CC1 [Olaparib] (first compound max 1 µM, 7x7, partner max 10 µM)
0.218
